# study_target: 5-hydroxytryptamine receptor 1A (Rattus norvegicus)
# Sequence (P19327 whole entry): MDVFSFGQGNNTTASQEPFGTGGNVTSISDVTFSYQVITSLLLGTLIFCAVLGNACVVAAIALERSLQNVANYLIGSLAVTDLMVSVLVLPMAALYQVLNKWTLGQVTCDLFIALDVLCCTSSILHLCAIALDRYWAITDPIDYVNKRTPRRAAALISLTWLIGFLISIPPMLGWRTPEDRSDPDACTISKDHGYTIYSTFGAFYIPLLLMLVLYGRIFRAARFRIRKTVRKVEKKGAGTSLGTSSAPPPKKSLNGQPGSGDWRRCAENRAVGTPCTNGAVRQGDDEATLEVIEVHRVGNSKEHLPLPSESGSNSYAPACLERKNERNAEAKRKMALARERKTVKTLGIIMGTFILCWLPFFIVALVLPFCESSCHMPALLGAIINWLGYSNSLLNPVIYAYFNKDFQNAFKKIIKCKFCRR
pKi: −log10 of the molar value.
assay_metric: pKi

In [3]: df
Out[3]:
                                   compound  readout_value
0   C1=C(c2cccc(CNCCOc3cccc4c3OCCO4)c2)CCC1           8.77
1  CC1(C)Cc2cccc(OCCNCc3cccc(C4=CCCC4)c3)c2O1           8.24
2   CC(C)Oc1ccccc1OCCNCc1cccc(C2=CCCCCC2)c1           7.64
3  CC1(C)COc2c(OCCNCc3cccc(C4=CCCC4)c3)cccc21           7.37
4  Fc1ccc(-c2cncc(CNC[C@H]3CCc4ccccc4O3)c2)cc1 [SARIZOTAN]           8.65
5  CCC1(C)Cc2cccc(OCCNCc3cccc(C4=CCCC4)c3)c2O1 (stereo not drawn)           8.26
6        CC(C)Oc1ccccc1OCCNCc1cccc(C2CC2)c1           7.21
7     CC(C)Oc1ccccc1OCCNCc1cccc(-c2cccs2)c1           7.33

###

Examples of molecules with documented pKi follow.
# study_target: D(2) dopamine receptor (Rattus norvegicus)
# protocol_notes: Displacement of [3H]YM-09151-2 from rat striatum D2 receptor
pKi: −log10 of the molar value.
assay_metric: pKi

                                    molecule  assay_metric  readout_value
 0      CC(C)Oc1ccccc1OCCNCc1cccc(C2CCCC2)c1           pKi           9.25
 1  CC1(C)Oc2cccc(OCCNCc3cccc(C4=CCCC4)c3)c2O1           pKi           8.91
 2     CC(C)Oc1ccccc1OCCNCc1cccc(-c2ccsc2)c1           pKi           9.56
 3  C1=C(c2cncc(CNCCOc3cccc4c3OC3(CC3)C4)c2)CCC1           pKi           9.35
 4  O=c1[nH]c2cccc(N3CCN(Cc4cccc(-c5ccccc5)c4)CC3)c2o1 [BIFEPRUNOX]           pKi           8.81
 5  Fc1ccc(-c2cncc(CNC[C@H]3CCc4ccccc4O3)c2)cc1 [SARIZOTAN]           pKi           7.72
 6    C1=C(c2cccc(CNCCOc3cccc4c3OCO4)c2)CCC1           pKi           8.59
 7        CC(C)Oc1ccccc1OCCNCc1cccc(C2CC2)c1           pKi           9.22
 8  CCC1(C)Cc2cccc(OCCNCc3cccc(C4=CCCC4)c3)c2O1 (stereo unspecified)           pKi           7.94
 9  CC1(C)Cc2cccc(OCCNCc3cncc(C4=CCCC4)c3)c2O1           pKi           9.56
10  CC1(C)COc2c(OCCNCc3cccc(C4=CCCC4)c3)cccc21           pKi           9.09

###

Examples of molecules with documented Ki follow.
# study_target: D(2) dopamine receptor (Rattus norvegicus, UniProt P61169)
# Sequence (P61169 whole entry): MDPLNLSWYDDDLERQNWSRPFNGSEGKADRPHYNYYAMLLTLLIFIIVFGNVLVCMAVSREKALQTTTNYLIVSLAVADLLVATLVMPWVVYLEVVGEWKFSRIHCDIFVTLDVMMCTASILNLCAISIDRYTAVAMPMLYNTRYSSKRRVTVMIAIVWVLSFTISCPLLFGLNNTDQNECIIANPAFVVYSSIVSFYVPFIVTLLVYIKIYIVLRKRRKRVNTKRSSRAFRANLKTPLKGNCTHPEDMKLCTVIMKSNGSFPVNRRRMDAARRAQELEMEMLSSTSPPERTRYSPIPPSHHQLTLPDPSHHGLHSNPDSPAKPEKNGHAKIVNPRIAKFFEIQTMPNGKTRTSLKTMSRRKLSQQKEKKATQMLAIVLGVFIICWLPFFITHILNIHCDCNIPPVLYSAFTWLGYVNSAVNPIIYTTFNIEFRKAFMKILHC
# protocol_notes: Displacement of [3H]YM-09151-2 from rat striatum D2 receptor
assay_metric: Ki (nM)

>>> print(df.to_string())
                                       smi                              study_target  assay_metric  readout_value
0  CC(C)Oc1ccccc1OCCNCc1cccc(C2=CCCCCC2)c1  D(2) dopamine receptor (Rattus norvegicus, UniProt P61169)            Ki           3.09
1    CC(C)Oc1ccccc1OCCNCc1cccc(-c2cccs2)c1  D(2) dopamine receptor (Rattus norvegicus, UniProt P61169)            Ki          0.562
2   CC(C)Oc1ccccc1OCCNCc1cccc(-c2ccccc2)c1  D(2) dopamine receptor (Rattus norvegicus, UniProt P61169)            Ki          0.195

###

# study_target: 5-hydroxytryptamine receptor 1A (Homo sapiens) (UniProt P08908)
# Sequence (P08908 whole entry): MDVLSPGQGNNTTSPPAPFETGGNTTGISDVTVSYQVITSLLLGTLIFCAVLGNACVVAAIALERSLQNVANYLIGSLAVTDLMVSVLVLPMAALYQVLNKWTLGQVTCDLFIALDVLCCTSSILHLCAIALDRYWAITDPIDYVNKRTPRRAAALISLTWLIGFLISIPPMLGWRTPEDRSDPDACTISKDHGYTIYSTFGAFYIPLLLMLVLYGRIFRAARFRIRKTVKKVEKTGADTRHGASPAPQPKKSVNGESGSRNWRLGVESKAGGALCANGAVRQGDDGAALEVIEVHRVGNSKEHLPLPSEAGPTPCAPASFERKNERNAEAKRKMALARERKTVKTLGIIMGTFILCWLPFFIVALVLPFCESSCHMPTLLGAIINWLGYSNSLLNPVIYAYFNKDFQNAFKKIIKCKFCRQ
# protocol_notes: Agonist activity at human 5HT1A receptor in HeLa cells assessed as stimulation of [35S]GTPgammaS binding relative to serotonin
# Format: functional, cell-based
Examples of compounds with documented Emax follow.
assay_metric: Emax

>>> df
                                        smi  assay_metric  readout_value
0   C1=C(c2cccc(CNCCOc3cccc4c3OCCO4)c2)CCC1          Emax          68.9%
1  Fc1ccc(-c2cncc(CNC[C@H]3CCc4ccccc4O3)c2)cc1          Emax          66.5%
2  CC1(C)Cc2cccc(OCCNCc3cncc(C4=CCCC4)c3)c2O1          Emax          72.4%
3  C1=C(c2cccc(CNCCOc3cccc4c3OC3(CC3)C4)c2)CCC1          Emax          93.8%
4  CC1(C)Cc2cccc(OCCNCc3cccc(C4=CCCC4)c3)c2O1          Emax          85.6%
5     CC(C)Oc1ccccc1OCCNCc1cccc(-c2ccsc2)c1          Emax          47.7%
6  Fc1ccc(-c2cncc(CN3CCN(c4cccc5c4OCCO5)CC3)c2)cc1          Emax          45.3%
7    C1=C(c2cccc(CNCCOc3cccc4c3OCO4)c2)CCC1          Emax          70.7%

###

Examples of molecules with documented Emax follow.
# study_target: 5-hydroxytryptamine receptor 1A (Homo sapiens) (UniProt P08908)
# protocol_notes: Agonist activity at human 5HT1A receptor in HeLa cells assessed as stimulation of [35S]GTPgammaS binding relative to serotonin
# Format: functional, cell-based
assay_metric: Emax (%)

>>> df
                                    molecule                              study_target  assay_metric  units  readout_value
 0     CC(C)Oc1ccccc1OCCNCc1cccc(C2=CCCC2)c1  5-hydroxytryptamine receptor 1A (Homo sapiens) (UniProt P08908)          Emax      %             54
 1   CC(C)Oc1ccccc1OCCNCc1cccc(C2=CCCCCC2)c1  5-hydroxytryptamine receptor 1A (Homo sapiens) (UniProt P08908)          Emax      %           86.5
 2  O=c1[nH]c2cccc(N3CCN(Cc4cccc(-c5ccccc5)c4)CC3)c2o1  5-hydroxytryptamine receptor 1A (Homo sapiens) (UniProt P08908)          Emax      %           60.8
 3  C1=C(c2cncc(CNCCOc3cccc4c3OC3(CC3)C4)c2)CCC1  5-hydroxytryptamine receptor 1A (Homo sapiens) (UniProt P08908)          Emax      %           78.5
 4  CC1(C)Oc2cccc(OCCNCc3cccc(C4=CCCC4)c3)c2O1  5-hydroxytryptamine receptor 1A (Homo sapiens) (UniProt P08908)          Emax      %           90.6
 5  CC1(C)COc2c(OCCNCc3cccc(C4=CCCC4)c3)cccc21  5-hydroxytryptamine receptor 1A (Homo sapiens) (UniProt P08908)          Emax      %           72.4
 6    CC(C)Oc1ccccc1OCCNCc1cccc(C2=CCCCC2)c1  5-hydroxytryptamine receptor 1A (Homo sapiens) (UniProt P08908)          Emax      %           69.8
 7  CCC1(C)Cc2cccc(OCCNCc3cccc(C4=CCCC4)c3)c2O1 (stereo unspecified)  5-hydroxytryptamine receptor 1A (Homo sapiens) (UniProt P08908)          Emax      %           77.7
 8      CC(C)Oc1ccccc1OCCNCc1cccc(C2CCCC2)c1  5-hydroxytryptamine receptor 1A (Homo sapiens) (UniProt P08908)          Emax      %           71.2
 9    CC(C)Oc1ccccc1OCCNCc1cccc(-c2ccccc2)c1  5-hydroxytryptamine receptor 1A (Homo sapiens) (UniProt P08908)          Emax      %           73.9
10  CCCN(CCC)C1CCc2cccc(O)c2C1 (stereo unspecified)  5-hydroxytryptamine receptor 1A (Homo sapiens) (UniProt P08908)          Emax      %             82
